# systemUnderTest: human GST-DYRK1A (full length) (Homo sapiens, UniProt Q13627)
pIC50: −log10 of the molar value.
observable: pIC50

- COCCNc1cc(Nc2ccc(P3(=O)CCN(C4COC4)CC3)cc2OC)nc2[nH]cc(C#N)c12: 6.00 to 6.52
- C=CCNc1cc(Nc2ccc(C(=O)N3CC[C@@H](N4CCOCC4)C3)c3c2OCC3)nc2[nH]cc(C(F)(F)F)c12: 6.52 to 7.00
- CCCNc1cc(Nc2ccc(S(=O)(=O)N3CCC(N4CCOCC4)CC3)cc2OC)nc2[nH]ccc12: 6.00 to 6.52
- O=C(c1ccc(Nc2cc(NC3CC3)c3c(Cl)c[nH]c3n2)c2c1OCCO2)N1CCOCC1: 6.00 to 6.52
- CNc1cc(Nc2ccc(S(=O)(=O)N3CCC(N4C[C@H]5C[C@@H]4CO5)CC3)cc2OC)nc2[nH]cc(C(F)(F)F)c12: > 7.00
- CCNc1cc(Nc2ccc(C(=O)N3CCOCC3)c3c2OCCO3)nc2[nH]cc(C(F)(F)F)c12: > 7.00
- CCNc1cc(Nc2ccc(C(=O)N3C[C@@H]4C[C@H]3CO4)c3c2OCCO3)nc2[nH]cc(C(F)(F)F)c12: > 7.00
- CCNc1cc(Nc2ccc(C(=O)N3CC[C@@H](N4CCOCC4)C3)c3c2OCC3)nc2[nH]cc(C(F)(F)F)c12: 6.52 to 7.00
- CNc1cc(Nc2ccc(C(=O)N3CCOCC3)c3c2OCCO3)nc2[nH]cc(C(F)(F)F)c12: > 7.00
- CNc1cc(Nc2ccc(P3(=O)CCN(C4COC4)CC3)cc2OC)nc2[nH]cc(C#N)c12: 6.52 to 7.00
- CNc1cc(Nc2ccc(S(=O)(=O)N3CCOCC3)cc2OC)nc2[nH]cc(C#N)c12: 6.00 to 6.52
- CCNc1cc(Nc2ccc(S(=O)(=O)N3CCOCC3)cc2OC)nc2[nH]cc(C#N)c12: 6.00 to 6.52
- CCCNc1cc(Nc2ccc(C(=O)N3CCOCC3)c3c2OCCO3)nc2[nH]cc(Cl)c12: 6.00 to 6.52
- COc1cc(S(=O)(=O)N2CCC(N3CCOCC3)CC2)ccc1Nc1cc(NCCS(C)(=O)=O)c2c(C(F)(F)F)c[nH]c2n1: > 7.00
- CNc1cc(Nc2ccc(S(=O)(=O)N3CCC(N4CCOCC4)CC3)cc2OC)nc2[nH]cc(Cl)c12: 6.00 to 6.52
